Values were extracted from paper PMC5777231.

Target: sphingosine-1-phosphate receptor 4 (S1PR4) (Homo sapiens, UniProt O95977)
Sequence (O95977 whole entry): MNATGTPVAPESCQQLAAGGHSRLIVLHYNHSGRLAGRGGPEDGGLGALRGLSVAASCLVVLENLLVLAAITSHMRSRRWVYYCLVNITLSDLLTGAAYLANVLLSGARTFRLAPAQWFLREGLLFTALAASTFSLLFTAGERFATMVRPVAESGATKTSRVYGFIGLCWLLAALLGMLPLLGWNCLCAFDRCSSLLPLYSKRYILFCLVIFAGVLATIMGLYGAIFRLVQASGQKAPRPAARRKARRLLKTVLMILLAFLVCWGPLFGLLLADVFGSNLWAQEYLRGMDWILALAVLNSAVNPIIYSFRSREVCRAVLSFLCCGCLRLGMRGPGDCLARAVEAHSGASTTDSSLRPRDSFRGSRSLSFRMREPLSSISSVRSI
Test: β-arrestin cell-based GPCR agonist assay
measurement-kind: pEC50
// returns pEC50 (minus log10 of molar concentration), number only

Tell me the measured pEC50 of CCCCCCCCCCCCCC(O)CC(=O)N[C@@H](CCCN)C(=O)O (stereo partly shown) [N-3-hydroxypalmitoyl ornithine] , please.
4.49
